Experiment: qHTS for Inhibitors of Plasmodium falciparum (HB3) proliferation (AID 504318); note: nearly all actives have a fitted effect of over 60% in size
Conditions: P. falciparum HB3 in erythrocytes, SYBR Green DNA, 72 h; series mostly up to 7.21 µM
Description: Plasmodium falciparum is a virulent malarial parasite that kills 1-2 million people worldwide each year. Malaria not only inflicts tremendous suffering and morbidity on the human population, but has dramatically influenced the course of civilization with profound sociological and economic implications (Shah, S. 2010). […] Because mature erythrocytes lack DNA, only Plasmodium-derived DNA is detected. […]
Inconclusive results are not listed. Calls of active or inactive are those of the source. Calls come from the whole dose curve; as a rule, active = well fitted inhibition curve with a large enough effect; inconclusive = small, poorly fitted or top-dose-only effect; inactive = flat fitted curve, though single readings scatter.
MEASURE: outcome

- MOLECULE: "C=CC1=C2C=C(C3CC3)N(CC(C)C)C=C2C(=O)C(C)(OC(=O)c2ccco2)C1=O (centres undefined)"
  outcome: "inactive"
- MOLECULE: "Cc1cc(C)cc(CO[C@H]2C=C[C@@H](c3ccccc3)O[C@H]2CO)c1"
  outcome: "inactive"
- MOLECULE: "COC(=O)C1=C(C(=O)OC)[C@@H]2N(C)c3ccccc3[C@@]23C[C@@H](C(=O)OC)N(C(=O)c2cc(C)oc2C)C3=N1"
  outcome: "inactive"
- MOLECULE: "CCCCCCCc1cc2ccccc2c(=O)o1"
  outcome: "inactive"

So what's the measured outcome for this one? COC(=O)c1ccc(CN2C(=O)C3(CC(C)=C[C@@H](C)O3)c3c(Br)cccc32)cc1 (some centres undefined) inactive

Which outcome is listed for COc1ccc(OC[C@@H]2CC3[C@@H](CC[C@@H](C)[C@H]3c3ccc(Br)cc3)C(=O)O2)cc1 (some centres undefined) ? inactive
